Measured values drawn from patent US12448433B2 for this set.

# Target: DPB1*02:01
# Test method notes: Peptide binding to HLA-DP allele, competition assay
Reported pIC50 values follow for various molecules
The quantity pIC50 is defined as the negative base-10 logarithm of the molar concentration.

Reported pIC50, molecule CC[C@H](C)[C@H](NC(=O)[C@H](CCCCN)NC(=O)CN)C(=O)N[C@@H](CC(=O)O)C(=O)N[C@@H](Cc1ccccc1)C(=O)N[C@@H](CC(C)C)C(=O)N[C@@H](CC(N)=O)C(=O)N[C@@H](CC(N)=O)C(=O)N[C@@H](Cc1ccc(O)cc1)C(=O)N[C@@H](C)C(=O)N[C@@H](CC(C)C)C(=O)N[C@@H](Cc1ccccc1)C(=O)N[C@@H](CC(C)C)C(=O)N[C@@H](CO)C(=O)N1CCC[C@H]1C(=O)O [Peptide 3563.0019] : ____
6.34

Tell me the measured pIC50 of CC[C@H](C)[C@H](NC(=O)CNC(=O)[C@H](CCSC)NC(=O)[C@H](CC(N)=O)NC(=O)[C@@H](NC(=O)[C@@H](NC(=O)[C@H](Cc1ccccc1)NC(=O)[C@H](CCC(=O)O)NC(=O)[C@@H](N)C(C)C)C(C)C)[C@@H](C)O)C(=O)N[C@H](C(=O)N[C@H](C(=O)N1CCC[C@H]1C(=O)N[C@@H](CC(=O)O)C(=O)N[C@@H](Cc1ccccc1)C(=O)N[C@@H](C)C(=O)O)[C@@H](C)CC)[C@@H](C)CC [Peptide 3563.0007] , please.
7.92
